# Assayed target: STAT6 (Homo sapiens, UniProt P42226)
# Sequence (P42226 whole entry, species assumed): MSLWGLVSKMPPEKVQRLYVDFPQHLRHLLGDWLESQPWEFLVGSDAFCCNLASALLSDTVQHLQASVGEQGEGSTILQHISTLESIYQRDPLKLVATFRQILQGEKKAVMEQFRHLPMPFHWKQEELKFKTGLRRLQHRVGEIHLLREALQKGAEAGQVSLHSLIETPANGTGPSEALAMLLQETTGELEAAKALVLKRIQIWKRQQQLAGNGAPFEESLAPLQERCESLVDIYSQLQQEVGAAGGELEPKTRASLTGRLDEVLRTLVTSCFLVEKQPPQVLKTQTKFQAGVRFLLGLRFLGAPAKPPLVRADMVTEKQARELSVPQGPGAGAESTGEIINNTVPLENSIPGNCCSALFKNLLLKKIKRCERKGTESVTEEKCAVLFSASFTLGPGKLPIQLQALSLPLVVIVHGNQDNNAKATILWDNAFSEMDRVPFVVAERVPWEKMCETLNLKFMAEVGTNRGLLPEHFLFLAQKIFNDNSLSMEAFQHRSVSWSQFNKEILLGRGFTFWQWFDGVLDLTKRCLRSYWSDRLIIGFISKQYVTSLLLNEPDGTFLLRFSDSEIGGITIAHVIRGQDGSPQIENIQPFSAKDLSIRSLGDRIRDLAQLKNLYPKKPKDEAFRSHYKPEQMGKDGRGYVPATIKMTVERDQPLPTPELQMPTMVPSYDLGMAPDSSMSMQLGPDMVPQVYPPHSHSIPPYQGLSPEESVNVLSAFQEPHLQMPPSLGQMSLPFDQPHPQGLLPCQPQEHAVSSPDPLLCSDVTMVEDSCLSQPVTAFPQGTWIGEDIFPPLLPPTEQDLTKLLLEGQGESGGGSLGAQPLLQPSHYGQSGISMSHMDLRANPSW
Residues, ends and D or L forms follow the SMILES beside them.
Below is a list of entries, each paired with its recorded pIC50 value.
Reminder that pIC50 means the negative base-10 logarithm of the concentration expressed in mol/L.

Compound: CC[C@H](C)[C@H](NC(=O)[C@H](CC(C)C)NC(=O)[C@H](CC(=O)O)NC(=O)[C@H](CCC(N)=O)NC(=O)[C@H](Cc1c[nH]c2ccccc12)NC(=O)[C@@H]1CCCN1C(=O)[C@@H](NC(=O)[C@H](Cc1ccc(OP(=O)(O)O)cc1)NC(=O)CNC(=O)[C@@H](N)CCC(=O)O)C(C)C)C(=O)O [EGY^PVPWQDLI] (HELM PEPTIDE1{E.G.[O=C([C@H](Cc1ccc(OP(=O)(O)O)cc1)N[*:1])[*:2]].V.P.W.Q.D.L.I}$$$$V2.0)
Assay result: 6.21

What the record says about CC(=O)N[C@@H](Cc1ccc(OP(=O)(O)O)cc1)C(=O)N[C@H](C(=O)N1CCC[C@H]1C(=O)N[C@@H](Cc1c[nH]c2ccccc12)C(=O)N[C@@H](CCC(N)=O)C(N)=O)C(C)C [Ac-Y^PVPWQ-NH2] (HELM PEPTIDE1{[ac].[O=C([C@H](Cc1ccc(OP(=O)(O)O)cc1)N[*:1])[*:2]].V.P.W.Q.[am]}$$$$V2.0) : pIC50 is 5.82

What the record says about CC(=O)N[C@@H](Cc1ccc(OP(=O)(O)O)cc1)C(=O)N[C@H](C(=O)N1CCC[C@H]1C(=O)N[C@@H](Cc1c[nH]c2ccccc12)C(N)=O)C(C)C [Ac-Y^PVPW-NH2] (HELM PEPTIDE1{[ac].[O=C([C@H](Cc1ccc(OP(=O)(O)O)cc1)N[*:1])[*:2]].V.P.W.[am]}$$$$V2.0) : pIC50 is 5.92

What the record says about CC(=O)N[C@@H](Cc1ccc(OP(=O)(O)O)cc1)C(=O)N[C@@H](CCCCN)C(=O)N1CCC[C@H]1C(=O)N[C@@H](Cc1ccccc1)C(N)=O [Ac-Y^PKPF-NH2, reference compound] (HELM PEPTIDE1{[ac].[O=C([C@H](Cc1ccc(OP(=O)(O)O)cc1)N[*:1])[*:2]].K.P.F.[am]}$$$$V2.0) : pIC50 is 4.66

Entry source: patent US6682898B2
